# maps each entry to its aptazyme ON/OFF ratio
B1: Pistol ribozyme (parent)
chain: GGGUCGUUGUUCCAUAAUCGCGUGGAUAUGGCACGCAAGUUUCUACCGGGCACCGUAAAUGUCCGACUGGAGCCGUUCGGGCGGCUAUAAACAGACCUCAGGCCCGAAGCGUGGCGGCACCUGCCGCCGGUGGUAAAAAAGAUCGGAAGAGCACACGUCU

# Variants of: B1
# ASSAY REMARKS: aptazyme ON/OFF ratio, guanine; higher = stronger switching; co-transcriptional cleavage with and without guanine

Worked cases, answers included:
U7G U8A G9A U11G C12G C13A :: 1.14
U7G U8C G9C U10C U11G C12G C13U :: 1.05

(Q) Please report the recorded aptazyme ON/OFF ratio for U7C U8C G9U U11A C12A C13A .
(A) 1.17

(Q) Another: U8G U10C U11A C12U
(A) 1.28

(Q) Cool, now U8C G9A U10G U11A C13A
(A) 1.03
